Answer each item with its documented inhibition.
Experimental target: Protein kinase C alpha type (Homo sapiens);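 further: reported value is the mean inhibition, measured within the GSK PKIS screening panel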
Experimental context: at 1 µM
One number for each entry, in %.

[
  {
    "Compound": "COc1ccc2ncn(-c3cc(O[C@H](C)c4ccccc4Cl)c(C(N)=O)s3)c2c1",
    "inhibition, %": -1.38
  },
  {
    "Compound": "CCc1cccc(CC)c1/C=C/c1cncc(C(=O)NC)c1",
    "inhibition, %": 3.13
  },
  {
    "Compound": "NS(=O)(=O)c1ccc(N/N=C2\\C(=O)Nc3ccc(-c4cnco4)cc32)cc1",
    "inhibition, %": -1.84
  },
  {
    "Compound": "O=C(Nc1n[nH]c2nc(-c3ccco3)ccc12)C1CC1",
    "inhibition, %": 0.41
  },
  {
    "Compound": "Fc1ccc(-c2ncn(C3CCNCC3)c2-c2ccnc(Oc3ccc(F)c(F)c3)n2)cc1",
    "inhibition, %": -0.82
  }
]

Each compound below has a reported value. Please supply its inhibition.
1. COc1cc(Nc2ncc3c(C)nc(-c4cccc(C(F)(F)F)c4)n3n2)cc(OC)c1OC
2. COc1ccc(C2=C(N3CCc4ccccc43)C(=O)NC2=O)cc1
3. CCc1ccc(Oc2nccc(-c3c(-c4ccc(F)cc4)ncn3C3CCNCC3)n2)cc1
4. FC(F)(F)c1cccc(Nc2nccc(-c3cnn4nc(-c5ccccc5)ccc34)n2)c1
5. NC(=O)c1cc(-c2ccncc2)cc(-c2ccccc2)c1N
6. Fc1ccc(-c2c(-c3ccncc3)nc3n2CCS3)cc1
7. NS(=O)(=O)c1ccc(Nc2cc(-c3ccc(O)c(F)c3)n[nH]2)cc1
8. O=C1NC(=O)C(c2cccc(Cl)c2)=C1Nc1ccc(Cl)c(C(=O)O)c1

output:
1: 1.99; 2: 3.07; 3: 7.86; 4: 0.87; 5: 4.38; 6: -2.48; 7: 0.4; 8: 0.21

Every entry's value here was drawn from ChEMBL document CHEMBL1961873.
